Provide the recorded pIC50 for the entries that follow.
Molecular target: recombinant alpha-glucosidase I (human full-length glucosidase I, Glu 1) (Homo sapiens)
Construct: 6-His (C); made in house; host or cells: HEK-293T cells transduced with BacMam virus (virus raised in Sf9)
Sequence (Q13724 whole entry): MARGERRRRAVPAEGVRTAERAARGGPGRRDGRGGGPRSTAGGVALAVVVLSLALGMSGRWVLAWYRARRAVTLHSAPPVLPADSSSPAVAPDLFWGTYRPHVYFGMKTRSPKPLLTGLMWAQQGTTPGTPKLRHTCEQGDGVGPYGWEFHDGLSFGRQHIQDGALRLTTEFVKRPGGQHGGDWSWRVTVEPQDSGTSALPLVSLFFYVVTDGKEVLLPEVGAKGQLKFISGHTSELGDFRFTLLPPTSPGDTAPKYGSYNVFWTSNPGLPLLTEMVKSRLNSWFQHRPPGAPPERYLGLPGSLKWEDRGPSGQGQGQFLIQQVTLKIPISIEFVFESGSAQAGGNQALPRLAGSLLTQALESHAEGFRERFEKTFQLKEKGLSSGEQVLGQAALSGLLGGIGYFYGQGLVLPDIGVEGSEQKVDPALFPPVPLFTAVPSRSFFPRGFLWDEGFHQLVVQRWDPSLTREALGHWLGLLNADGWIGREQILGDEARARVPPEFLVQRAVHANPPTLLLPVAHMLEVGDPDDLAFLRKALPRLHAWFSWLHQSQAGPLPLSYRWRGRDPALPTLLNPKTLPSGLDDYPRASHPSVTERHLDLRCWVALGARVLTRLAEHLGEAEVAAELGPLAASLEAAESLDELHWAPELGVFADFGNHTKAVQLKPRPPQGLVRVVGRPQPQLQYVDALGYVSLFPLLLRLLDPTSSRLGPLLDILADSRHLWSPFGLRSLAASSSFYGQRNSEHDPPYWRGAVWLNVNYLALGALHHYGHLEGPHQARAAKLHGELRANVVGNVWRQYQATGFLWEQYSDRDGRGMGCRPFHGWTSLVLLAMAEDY
Test: Alpha-glucosidase I assay (Amplex Red glucose detection, synthetic trisaccharide substrate)
Format: biochemical
Numbers only, as −log10 of the molar value.

N#Cc1cc(NCc2cccc(CN3C[C@H](O)[C@@H](O)[C@H](O)[C@H]3CO)c2)cc(C2=COCCO2)c1 [Compound 1044] :: 8.52
Cc1cc(NCc2ccc(CN3C[C@H](O)[C@@H](O)[C@H](O)[C@H]3CO)cc2)cc(-c2cccnn2)c1 [Compound 1052] :: 7.14

Then there is this compound:
Which value of pIC50 has been reported for Cc1cc(NCc2cccc(CN3C[C@H](O)[C@@H](O)[C@H](O)[C@H]3CO)c2)cc(-c2ncccn2)c1 [Compound 1035] in the records?
7.36

Values were extracted from patent US20250197372A1.
